Molecular target: GST-Aq-NF-kB (Amphimedon queenslandica, UniProt A9Y5G7 2-389)
Sequence: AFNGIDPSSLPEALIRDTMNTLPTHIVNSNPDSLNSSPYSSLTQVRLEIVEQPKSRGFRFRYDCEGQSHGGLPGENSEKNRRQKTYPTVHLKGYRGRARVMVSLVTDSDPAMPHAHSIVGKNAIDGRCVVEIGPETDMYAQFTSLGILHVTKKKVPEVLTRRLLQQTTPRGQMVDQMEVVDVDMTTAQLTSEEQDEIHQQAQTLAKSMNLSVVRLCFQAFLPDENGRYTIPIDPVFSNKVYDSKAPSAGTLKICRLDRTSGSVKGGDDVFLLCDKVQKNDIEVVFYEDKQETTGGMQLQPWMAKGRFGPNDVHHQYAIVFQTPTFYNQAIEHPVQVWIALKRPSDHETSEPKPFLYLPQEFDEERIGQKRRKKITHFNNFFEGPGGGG
Experiment: protein-binding microarray (PBM); PBM: ~300 nM protein, 6 mM HEPES pH 7.8, 80 mM KCl, 0.5 mM EDTA, 0.5 mM EGTA, 6% glycerol, 35 ng/ul poly-dIdC, 1% milk, 1 h, room temperature; Ap Aiptasia and Nv Nematostella (sea anemones) / Co Capsaspora / Aq Amphimedon (sponge) / Dm Drosophila / Hu human; RHD is the Rel homology domain; high values mean tight binding
Conditions: dsDNA, one strand shown
Assignment: determine reported binding signal for the given sequences.
Answers are plain numbers, in z-score.

Would you please look over these solved cases?
[
  {
    "SEQUENCE": "CCGATTAACATCAGGGAAAACACTGATGTTAATCGGGTCTTGATTCGCTTGACGCTGCTG",
    "VAL": 6.06
  },
  {
    "SEQUENCE": "CCGATTAACATCAATAAATCCCCTGATGTTAATCGGGTCTTGATTCGCTTGACGCTGCTG",
    "VAL": 6.63
  },
  {
    "SEQUENCE": "CCGATTAACATCAGGGGTTTCACTGATGTTAATCGGGTCTTGATTCGCTTGACGCTGCTG",
    "VAL": 4.84
  }
]

Look at each sequence and report its binding signal.
1. CCGATTAACATCAAGGGGGGTGCTGATGTTAATCGGGTCTTGATTCGCTTGACGCTGCTG
2. CCGATTAACATCACAGGGAAAAATGATGTTAATCGGGTCTTGATTCGCTTGACGCTGCTG

[4.32, 3.9]

src = paper PMC5700166
